Across several publications, the following IC50 results were reported for Glycylpeptide N-tetradecanoyltransferase 1 (Homo sapiens, UniProt P30419).
Reported property: IC50

{"Molecule": "Cn1ccc(CN2C(=O)COc3ccccc32)n1", "Reported property": "IC50", "Result": "> 100 µM"}
{"Molecule": "CC(=O)N[C@@H](CO)C(=O)N[C@@H](CCCCN)C(=O)NCCC1CCCCC1", "Reported property": "IC50", "Result": "> 100 µM"}
{"Molecule": "CN(C)C(=O)CCN1C(=O)COc2ccccc21", "Reported property": "IC50", "Result": "> 100 µM"}
{"Molecule": "O=C1CSC(c2ccccn2)N1c1cccc(Cl)c1 (stereo not shown)", "Reported property": "IC50", "Result": "> 50 µM"}
{"Molecule": "O=C1CSC(c2ccccn2)N1c1ccccc1Cl (stereo not shown)", "Reported property": "IC50", "Result": "> 100 µM"}
{"Molecule": "NCCCC[C@H](NC(=O)[C@H](CO)NC(=O)CCCCCCCCn1ccnc1)C(=O)NCCC1CCCCC1", "Reported property": "IC50", "Result": "> 100 µM"}
{"Molecule": "Cc1cc(CN2C(=O)COc3ccc(Cl)cc32)no1", "Reported property": "IC50", "Result": "> 100 µM"}
{"Molecule": "NCCCC[C@H](NC(=O)[C@H](CO)NC(=O)CCCCCCCCCn1ccnc1)C(=O)NCCC1CCCCC1", "Reported property": "IC50", "Result": "44 µM"}
{"Molecule": "Cc1cnc(CNC(=O)C2CN(c3nc(NCCN(C)C)ncc3Cl)C2)cn1", "Reported property": "IC50", "Result": "70 µM"}
{"Molecule": "O=C1COc2ccccc2N1Cc1ccncc1", "Reported property": "IC50", "Result": "> 100 µM"}
{"Molecule": "CNCC(=O)N1CC[C@@H](NC(=O)c2ccccc2C(F)(F)F)C1", "Reported property": "IC50", "Result": "0.57 µM"}
{"Molecule": "Cc1cc(CN2C(=O)COc3cc(Br)ccc32)no1", "Reported property": "IC50", "Result": "> 100 µM"}
{"Molecule": "CCOC(=O)CN1C(=O)COc2ccccc21", "Reported property": "IC50", "Result": "> 100 µM"}
{"Molecule": "NCCCCCCCCC(=O)N[C@@H](CO)C(=O)N[C@@H](CCCCN)C(N)=O", "Reported property": "IC50", "Result": "33.1 µM"}
{"Molecule": "CCN1C(=O)CSC1c1ccc(O)c(OC)c1 (stereo not shown)", "Reported property": "IC50", "Result": "> 100 µM"}
{"Molecule": "CC(C)Cc1nc(CN2C(=O)COc3ccccc32)no1", "Reported property": "IC50", "Result": "> 100 µM"}
{"Molecule": "CN(C)C(=O)CN1C(=O)COc2ccccc21", "Reported property": "IC50", "Result": "> 100 µM"}
{"Molecule": "Cc1nccn1CCCCCCCC(=O)N[C@@H](CO)C(=O)N[C@@H](CCCCN)C(=O)NCCC1CCCCC1", "Reported property": "IC50", "Result": "82.2 µM"}
{"Molecule": "Cc1nccn1CCCCCCCCCCC(=O)N[C@@H](CO)C(=O)N[C@@H](CCCCN)C(=O)NCCC1CCCCC1", "Reported property": "IC50", "Result": "21.8 µM"}

====

Across several publications, the following IC50 results were reported for Glycylpeptide N-tetradecanoyltransferase 1 (Homo sapiens).
Reported property: IC50

{"Compound": "Cc1nn(C)c(C)c1N(C)S(=O)(=O)c1c(Cl)cc(N2CCN(C(=O)c3cnn(C)c3)CC2)cc1Cl", "Result": "0.08 µM"}
{"Compound": "COc1cc(C2SCC(=O)N2Cc2ccco2)ccc1O (stereo not drawn)", "Result": "> 100 µM"}
{"Compound": "O=C1CSC(c2ccccn2)N1c1ccccc1 (stereo not drawn)", "Result": "66 µM"}
{"Compound": "COc1cccc(C2SCC(=O)N2Cc2ccco2)c1 (stereo not drawn)", "Result": "> 100 µM"}
{"Compound": "Cc1nc(CN2C(=O)COc3ccccc32)cs1", "Result": "> 100 µM"}
{"Compound": "Cc1cccc(CN2C(=O)COc3ccccc32)n1", "Result": "69 µM"}
{"Compound": "Cc1noc(CN2C(=O)COc3ccccc32)n1", "Result": "> 100 µM"}
{"Compound": "Cc1nccn1CCCCCCCCCC(=O)N[C@@H](CO)C(=O)N[C@@H](CCCCN)C(=O)NCCC1CCCCC1", "Result": "7.92 µM"}
{"Compound": "NCCCCCCCCCC(=O)N[C@@H](CO)C(=O)N[C@@H](CCCCN)C(N)=O", "Result": "1.36 µM"}
